target: hGALK1m (Homo sapiens, UniProt P51570, E253A/K252A)
Construct: made in house; host or cells: E. coli HMS174
Sequence (P51570 whole entry K252A/E253A): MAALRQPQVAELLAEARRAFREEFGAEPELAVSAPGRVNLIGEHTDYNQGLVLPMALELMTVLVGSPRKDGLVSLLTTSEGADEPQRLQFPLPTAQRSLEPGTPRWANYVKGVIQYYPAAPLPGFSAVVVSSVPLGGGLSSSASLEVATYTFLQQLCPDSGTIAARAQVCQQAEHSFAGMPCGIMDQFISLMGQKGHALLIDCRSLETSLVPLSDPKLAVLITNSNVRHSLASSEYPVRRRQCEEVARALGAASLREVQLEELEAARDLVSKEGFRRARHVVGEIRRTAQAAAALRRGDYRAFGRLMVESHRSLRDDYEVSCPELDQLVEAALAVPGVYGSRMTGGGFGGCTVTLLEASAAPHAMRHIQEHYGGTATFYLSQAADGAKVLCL
test protocol: in vitro hGALK1 activity assay of the structure-based optimisation (Example 12, Tables 17-20)
Type: biochemical
condition details: 1 h; Table 17; read-out: Efficacy
# cutoff 90% applies to Emax; >= gives 1.0, < gives 0.0

INSERT INTO assay_data (molecule, class_name) VALUES
  ('CC1=C(C(=O)Nc2nncs2)C(c2ccccc2Cl)N=C(Nc2nc3ccccc3o2)N1 (centres unmarked)', 1.0),
  ('CC1=C(C(=O)Nc2cccc(C(=O)O)c2)C(c2ccccc2Cl)N=C(Nc2nc3ccccc3o2)N1 (centres unmarked)', 1.0),
  ('CC1=C(C(=O)NCc2nc3ccccc3n2C)C(c2ccccc2Cl)N=C(Nc2nc3ccccc3o2)N1 (centres unmarked)', 0.0),
  ('CC1=C(C(=O)NCc2cncn2C)C(c2ccccc2Cl)N=C(Nc2nc3ccccc3o2)N1 (centres unmarked)', 1.0),
  ('CC1=C(C(=O)Nc2ccccc2)C(c2ccccc2Cl)N=C(Nc2nc3ccccc3o2)N1 (centres unmarked)', 0.0),
  ('CC1=C(C(=O)NCc2nccn2C)C(c2ccccc2Cl)N=C(Nc2nc3ccccc3o2)N1 (centres unmarked)', 1.0);
